Cited source: the supplement of paper PMC7156485

List of cell number values.
# Tested on: HCC1569;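 further: TDF denotes transformed human dermal fibroblasts of mesenchymal origin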
# assay-explanation: cell number relative to DMSO (% of DMSO); higher = more cells (less growth inhibition / toxicity)
# conditions-used: concentration: 10 µM; 24 h
reported-property: cell number

compound="CC1=C(C)C(=O)C(CCC(C)(O)CCCC(C)CCCC(C)CCCC(C)C)=C(C)C1=O (racemic)" quantitative_readout=99
compound="Cl.NC(=O)c1ccc(OCC(O)CN2CC=C(c3ccc(F)cc3)CC2)cc1 (stereo not drawn)" quantitative_readout=105
compound="Cl.Clc1cc(I)cc(Cl)c1NC1=NCCN1 [p-Iodoclonidine hydrochloride]" quantitative_readout=102
compound=CN1CCC(c2c[nH]c3ccc(O)cc23)CC1.O=C(O)C=CC(=O)O quantitative_readout=101
compound=O=C(NCCN1CCC2(CC1)C(=O)NCN2c1cccc(F)c1)c1ccc(F)c(F)c1 quantitative_readout=92.7
compound="O=C1NCN(c2ccccc2)C12CCN(CC1COc3ccccc3O1)CC2 (stereo not drawn)" quantitative_readout=98.9
compound="CC1=C2C3OC(=O)C(C)C3CCC2(C)C=CC1=O (stereo not drawn)" quantitative_readout=103
compound=Cl.Cl.c1ccc(CCCN2CCN(CCOC(c3ccccc3)c3ccccc3)CC2)cc1 quantitative_readout=98.6
compound=CC(C)(C)c1cc(C=C(C#N)C#N)cc(Br)c1O quantitative_readout=99.2
compound="C[N+](C)(C)CC#CCN1CCCC1=O.[I-] [Oxotremorine methiodide]" quantitative_readout=106
compound="CCCN(CCC)CCc1c[nH]c2ccc(C(N)=O)cc12.O=C(O)C=CC(=O)O [N,N-Dipropyl-5-carboxamidotryptamine maleate]" quantitative_readout=99.4
compound="COC12CC(COC(=O)c3cncc(Br)c3)CN(C)C1Cc1cn(C)c3cccc2c13 (stereo not drawn)" quantitative_readout=104
compound="COc1ccc(CC2NCCc3cc(OC)c(OC)cc32)cc1OC.Cl (stereo not drawn)" quantitative_readout=99.3
compound="CC(C)C1(NC(=O)C2C=C3c4cccc5[nH]cc(c45)CC3N(C)C2)OC2(O)C3CCCN3C(=O)C(Cc3ccccc3)N2C1=O (stereo not drawn)" quantitative_readout=102
compound=Clc1cnc(Oc2ccc(Oc3ncc(Cl)cc3Cl)cc2)c(Cl)c1 quantitative_readout=100
compound="CNc1ccc2oc(CC3OC4(CCC3C)OC(C(C)C(=O)c3ccc[nH]3)C(C)CC4C)nc2c1C(=O)O (stereo not drawn)" quantitative_readout=70.4
compound="C[Se]CC(N)C(=O)O.Cl (stereo not drawn) [Se-(methyl)selenocysteine hydrochloride]" quantitative_readout=99.6
compound="CCCN(CCC)C1CCc2c(F)ccc(O)c2C1.Cl (stereo not drawn) [S(-)-UH-301 hydrochloride]" quantitative_readout=102
compound="CCN1CC2(COC)CCC(O)C34C5CC6C(OC)CC(O)(C(CC23)C14)C5C6OC(C)=O (stereo not drawn)" quantitative_readout=101
compound="Cc1[nH]c2ccc(O)cc2c1CCN.O=C(O)C=CC(=O)O [2-Methyl-5-hydroxytryptamine maleate]" quantitative_readout=106
compound=Cc1[nH]c2ccc(Cl)cc2c1C1=CCNCC1.Cl quantitative_readout=99.8
compound="Cl.NCCc1ccc(O)cc1 [4-Hydroxyphenethylamine hydrochloride]" quantitative_readout=96.2
compound="CC1OCC(C[N+](C)(C)C)O1.[I-] (single isomer, unassigned; (+)) [(+)-cis-Dioxolane iodide]" quantitative_readout=102
compound="CC=C1CC(C)C(O)(CO)C(=O)OCC2=CCN3CCC(OC1=O)C23 (stereo not drawn)" quantitative_readout=101
compound="CC1OC(C[N+](C)(C)C)CS1.[I-] (stereo not drawn) [OXA-22 iodide]" quantitative_readout=99.8
compound=Nc1ccncc1 quantitative_readout=101
compound="CC1CC=CC2C3OC3(C)C(C)C3C(Cc4ccccc4)NC(=O)C23OC(=O)OC=CC(C)(O)C1=O (stereo not drawn)" quantitative_readout=63.3
compound="CC(C(O)CCC(C)(C)O)C1CCC2(O)C3=CC(=O)C4CC(O)C(O)CC4(C)C3CCC12C (stereo not drawn)" quantitative_readout=103
